Recorded MIC values for a group of compounds are listed next.
- Tested on: A. baumannii AABA1065 (Fluoroquinolone-susceptible)
- assay.protocol: MIC, CLSI broth microdilution
- Assay type: cell-based
- experimental.context: Acinetobacter baumannii, Table 2, read-out: MIC AABA 1065

{"columns": ["compound", "assayed.target", "measured.value"],
 "data": [
  ["COc1c(N2C[C@@H]3CCCN[C@@H]3C2)c(F)cc2c(=O)c(C(=O)O)cn(C3CC3)c12 [Moxifloxacin, reference compound]", "A. baumannii AABA1065 (Fluoroquinolone-susceptible)", "≤ 1 µg/mL"],
  ["CO/N=C1\\CN(c2nc3c(cc2F)c(=O)c(C(=O)O)cn3C2CC2)CC1CN (centres unmarked) [Gemifloxacin, reference compound]", "A. baumannii AABA1065 (Fluoroquinolone-susceptible)", "≤ 1 µg/mL"]
]}

Task: Find MIC (A. baumannii AABA1065 (Fluoroquinolone-susceptible)) for the entry O=C1CC2CCCN2c2c(F)cc3c(=O)c(C(=O)O)cn(C4CC4)c3c2N1 (centres unmarked) [32/3]
Output: > 8 µg/mL

Task: Find MIC (A. baumannii AABA1065 (Fluoroquinolone-susceptible)) for the entry N[C@H]1C[C@H]2CCCc3c(c(F)cc4c(=O)c(C(=O)O)cn(C5CC5)c34)N2C1 [3/15]
Output: ≤ 1 µg/mL

Task: Find MIC (A. baumannii AABA1065 (Fluoroquinolone-susceptible)) for the entry N[C@H]1C[C@H]2CCOc3c(c(F)cc4c(=O)c(C(=O)O)cn(C5CC5)c34)N2C1 [32/2]
Output: ≤ 1 µg/mL

Task: Find MIC (A. baumannii AABA1065 (Fluoroquinolone-susceptible)) for the entry C[C@H]1COc2c(N3CCN(C)CC3)c(F)cc3c(=O)c(C(=O)O)cn1c23 [Levofloxacin, reference compound]
Output: ≤ 1 µg/mL

Task: Find MIC (A. baumannii AABA1065 (Fluoroquinolone-susceptible)) for the entry O=C(O)c1cn(C2CC2)c2c3c(c(F)cc2c1=O)N1CCC[C@H]1CCC3 [1/10]
Output: 1 to 8 µg/mL

Task: Find MIC (A. baumannii AABA1065 (Fluoroquinolone-susceptible)) for the entry N[C@H]1CC2CCCc3c(c(F)cc4c(=O)c(C(=O)O)cn(C5CC5)c34)N2C1 (some centres unmarked) [32/4]
Output: > 8 µg/mL
